# study-target: T1, Cynomolgus CD3εδ Fc heterodimer (Cy CD3ε Fc / CD3δ Fc-HIS) (cynomolgus, UniProt Q95LI8 22-100)
# T1 chain 1: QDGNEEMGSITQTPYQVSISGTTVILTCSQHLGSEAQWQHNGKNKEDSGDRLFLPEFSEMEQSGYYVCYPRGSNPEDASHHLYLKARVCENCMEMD
# T1 chain 2: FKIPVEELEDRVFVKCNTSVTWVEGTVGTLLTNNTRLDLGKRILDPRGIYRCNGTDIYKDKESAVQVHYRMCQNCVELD
# test-name: BLI (Octet), IgG on AHC sensor, pH 6.0
Here the recorded koff is given for each entry.
Provide only the numeric value, understood in s⁻¹.

Previously resolved entries follow.
SAD10320_P04_F11 (ADI-57389) (antibody, V domains shown, IgG; also called Ab112) VH: QVQLVQSGAEVKKPGASVKVSCKASGFNIKDYYMHWVRQAPGQRLEWMGWIDLENANTIYDAKFQGRVTITRDTSASTAYMELSSLRSEDTAVYYCARDAYGHEFYDVWGQGTLVTVSS VL: DIVMTQSPDSLAVSLGERATINCKSSQSLLNARTGKNYLAWYQQKPGQPPKLLIYWASTRESGVPDRFSGSGSGTDFTLTISSLQAEDVAVYYCKQGHSRRTFGGGTKVEIK; 0.00192
SAD10319_P02_F04 (ADI-57312) (antibody, V domains shown, IgG; also called Ab253) VH: QVQLVQSGAEVKKPGASVKVSCKASGYTFDSYTMHWVRQAPGQRLEWMGYINPDTGATYYSQKFQGRVTITRDTSASTAYMELSSLRSEDTAVYYCARDAYHHYFYDVWGQGTLVTVSS VL: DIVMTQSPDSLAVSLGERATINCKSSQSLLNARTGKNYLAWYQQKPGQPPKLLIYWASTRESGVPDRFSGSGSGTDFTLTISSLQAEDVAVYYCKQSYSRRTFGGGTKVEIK; 0.0317

Problem: Identify measured koff corresponding to SAD10320_P02_E06 (ADI-57369) (antibody, V domains shown, IgG; also called Ab86) VH: QVQLVQSEAEVKKPGASVKVSCKASGFNIKDYYMHWVRQAPGQRLQWMGWIDLENANTIYDAKFQGRVTITRDTSASTAYMELSSLRSEDTAVYYCARDAYGHGFYDVWGQGTLVTVSS VL: DIVMTQSPDSLAVSLGERATINCKSSQSLLNARPGKNYLAWYQQKPGQPPKLLIYWASTRESGVPDRFSGSGSGTDFTLTISSLQAEDVAVYYCKQSYSRRTFGGGTKVEIK
Solution: 0.0303
